- Test Summary: Half life in mouse brain at 5 mg/kg, ip by LC/MS/MS analysis
- Assay type: ADME, organism-based
Endpoint Label: half-life (min)
Numbers only, in min.

Input line: I'd like to know its half-life. The molecule in question is COc1ccc2c(c1)C(=O)N1CCC[C@H]1c1c(C(=O)N(C)C)ncn1-2
Output line: 10.3

###

- Test system: Liver
- Test Summary: Metabolic stability in human liver microsomes assessed as compound remaining at 10 uM after 1 hr by LC-MS/MS analysis
- Assay type: ADME, microsome
Consider the following compounds; for each one, report its Stability.
Numbers only, in %.

Recorded results for 4 compounds are shown here.
| Compound Structure | Stability, % |
| --- | --- |
| [2H]C([2H])([2H])Oc1ccc2c(c1)C(=O)N1CCC[C@H]1c1c(C(=O)O)ncn1-2 | 84.6 |
| [2H]C([2H])([2H])Oc1ccc2c(c1)C(=O)N1CCC[C@H]1c1c(C(=O)NC3CC3)ncn1-2 | 88.1 |
| CCOC(=O)c1ncn2c1[C@@H]1CCCN1C(=O)c1cc(O)ccc1-2 | 91.7 |
| [2H]C([2H])([2H])Oc1ccc2c(c1)C(=O)N1CCC[C@H]1c1c(C(=O)OC(C(F)(F)F)C(F)(F)F)ncn1-2 | 77.1 |

We now examine a further compound.
Input line: Enter reported Stability observed with Liver for COc1ccc2c(c1)C(=O)N1CCC[C@H]1c1c(C(=O)O)ncn1-2
Output line: 56.1

###

- Test Summary: Elimination rate constant in mouse lung at 5 mg/kg, ip by LC/MS/MS analysis
- Assay type: ADME, organism-based
Endpoint Label: k el (s⁻¹)
Answers are plain numbers, in s⁻¹.

Input line: I'd like to know its k el. The compound in question is COc1ccc2c(c1)C(=O)N1CCC[C@H]1c1c(C(=O)N(C)C)ncn1-2
Output line: 0.000983

###

- Test Summary: Half life in mouse liver microsomes at 10 uM by LC-MS/MS analysis
- Format: ADME, microsome
- Assay Setup: liver microsomes
Endpoint Label: log10 of half-life at 10 µM (log10 of the value in h)
Response schema: value (number) is log10 of half-life at 10 µM in units of h.

Recorded results for 8 molecules are shown here.
| Compound Structure | log10 of half-life at 10 µM |
| --- | --- |
| CCOC(=O)c1ncn2c1[C@@H]1CCCN1C(=O)c1cc(O)ccc1-2 | 0.95 |
| CCOC(=O)c1ncn2c1[C@@H]1CCCN1C(=O)c1cc(OC)ccc1-2 | 0.72 |
| COc1ccc2c(c1)C(=O)N1CCC[C@H]1c1c(C(=O)OCC(C)C)ncn1-2 | -0.49 |
| [2H]C([2H])([2H])Oc1ccc2c(c1)C(=O)N1CCC[C@H]1c1c(C(=O)NC)ncn1-2 | 0.11 |
| CC(C)(C)OC(=O)c1ncn2c1[C@@H]1CCCN1C(=O)c1cc(O)ccc1-2 | -0.02 |
| [2H]C([2H])([2H])Oc1ccc2c(c1)C(=O)N1CCC[C@H]1c1c(C(=O)OC(C(F)(F)F)C(F)(F)F)ncn1-2 | 0.26 |
| [2H]C([2H])([2H])Oc1ccc2c(c1)C(=O)N1CCC[C@H]1c1c(C(=O)O)ncn1-2 | 0.67 |
| [2H]C([2H])([2H])Oc1ccc2c(c1)C(=O)N1CCC[C@H]1c1c(C(=O)OC(C)(C)C)ncn1-2 | -0.37 |

We now examine a further molecule.
Input line: I'd like to know its log10 of half-life at 10 µM. The molecule in question is COC(=O)c1ncn2c1[C@@H]1CCCN1C(=O)c1cc(OC)ccc1-2
Output line: 0.33

###

- Test Summary: Cmax in mouse lung at 5 mg/kg, ip by LC/MS/MS analysis
- Format: ADME, organism-based
- Parameters: dose 5 mg/kg, route intraperitoneal
Endpoint Label: Cmax

Input line: I'd like to know its Cmax. The compound in question is COc1ccc2c(c1)C(=O)N1CCC[C@H]1c1c(C(=O)N(C)C)ncn1-2
Output line: 30 ng/g

###

- Test Summary: Elimination rate constant in mouse blood at 5 mg/kg, ip by LC/MS/MS analysis
- Format: ADME, organism-based
Endpoint Label: k el (s⁻¹)
One number for each entry, in s⁻¹.

Input line: I'd like to know its k el. The molecule in question is COc1ccc2c(c1)C(=O)N1CCC[C@H]1c1c(C(=O)N(C)C)ncn1-2
Output line: 0.0013

###

- Subject Of Test: GABA-A receptor; alpha-1/beta-3/gamma-2 (Homo sapiens, UniProt P14867+P18507+P28472)
- Sequence (P14867 whole entry): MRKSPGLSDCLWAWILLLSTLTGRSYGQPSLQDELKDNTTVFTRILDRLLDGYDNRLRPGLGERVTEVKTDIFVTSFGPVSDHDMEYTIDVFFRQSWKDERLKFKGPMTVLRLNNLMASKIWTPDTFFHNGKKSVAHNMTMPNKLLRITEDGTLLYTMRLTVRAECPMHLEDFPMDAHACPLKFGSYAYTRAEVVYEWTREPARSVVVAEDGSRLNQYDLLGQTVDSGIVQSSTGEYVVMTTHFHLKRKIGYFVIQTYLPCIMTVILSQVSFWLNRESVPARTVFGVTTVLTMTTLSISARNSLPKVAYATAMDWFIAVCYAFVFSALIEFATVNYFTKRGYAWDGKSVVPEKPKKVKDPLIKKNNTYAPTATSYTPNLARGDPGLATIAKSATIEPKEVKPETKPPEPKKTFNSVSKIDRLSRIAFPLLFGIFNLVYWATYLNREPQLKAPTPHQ
- Sequence (P18507 whole entry): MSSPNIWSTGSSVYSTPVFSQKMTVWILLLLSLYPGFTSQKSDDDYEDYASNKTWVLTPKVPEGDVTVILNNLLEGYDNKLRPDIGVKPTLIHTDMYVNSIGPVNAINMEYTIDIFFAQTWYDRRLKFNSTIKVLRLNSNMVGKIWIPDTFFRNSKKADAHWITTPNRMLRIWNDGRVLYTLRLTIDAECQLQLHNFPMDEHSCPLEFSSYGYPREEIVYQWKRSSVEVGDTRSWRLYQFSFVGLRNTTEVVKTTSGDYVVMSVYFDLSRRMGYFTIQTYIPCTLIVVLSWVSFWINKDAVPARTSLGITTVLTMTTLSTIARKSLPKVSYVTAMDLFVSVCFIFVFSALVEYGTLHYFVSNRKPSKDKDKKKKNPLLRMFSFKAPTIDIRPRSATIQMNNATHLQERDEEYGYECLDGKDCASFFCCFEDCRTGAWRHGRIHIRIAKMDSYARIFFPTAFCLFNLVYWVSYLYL
- Sequence (P28472 whole entry): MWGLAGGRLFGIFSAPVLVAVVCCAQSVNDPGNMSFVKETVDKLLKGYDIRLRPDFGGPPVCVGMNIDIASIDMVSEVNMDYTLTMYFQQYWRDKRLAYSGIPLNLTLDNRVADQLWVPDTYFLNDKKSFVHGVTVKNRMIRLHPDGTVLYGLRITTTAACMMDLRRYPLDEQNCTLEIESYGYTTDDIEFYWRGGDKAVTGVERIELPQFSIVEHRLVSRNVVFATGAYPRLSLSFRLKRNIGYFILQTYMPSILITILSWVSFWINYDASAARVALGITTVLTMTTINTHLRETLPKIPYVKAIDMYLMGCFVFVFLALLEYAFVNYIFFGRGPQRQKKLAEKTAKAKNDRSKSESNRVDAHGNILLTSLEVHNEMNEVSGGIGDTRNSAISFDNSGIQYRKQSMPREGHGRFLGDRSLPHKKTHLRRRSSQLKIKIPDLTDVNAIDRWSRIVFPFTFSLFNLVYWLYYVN
- Test Summary: Activity at GABAA alpha1beta3gamma2 receptor (unknown origin) expressed in HEK293T cells assessed as potentiation of GABA-mediated increase in channel current under holding potential at -80 mV at 1 uM by patch clamp assay
- Format: cell-based
Endpoint Label: Activity

Input line: I'd like to know its Activity. The compound in question is COc1ccc2c(c1)C(=O)N1CCC[C@H]1c1c(C(=O)N(C)C)ncn1-2
Output line: 161 to 179%

###

- Test Summary: Half life in mouse lung at 5 mg/kg, ip by LC/MS/MS analysis
- Format: ADME, organism-based
Endpoint Label: half-life (min)
Give bare numbers, in min.

Input line: I'd like to know its half-life. The compound in question is COc1ccc2c(c1)C(=O)N1CCC[C@H]1c1c(C(=O)N(C)C)ncn1-2
Output line: 11.7

###

- Test Summary: Half life in human liver microsomes at 10 uM by LC-MS/MS analysis
- Assay type: ADME, microsome
Consider the following molecules; for each one, report its log10 half-life at 10 µM.
Response schema: value (number) is log10 of half-life at 10 µM in units of h.

| Compound Structure | log10 half-life at 10 µM |
| --- | --- |
| CNC(=O)c1ncn2c1[C@@H]1CCCN1C(=O)c1cc(OC)ccc1-2 | 1.21 |
| COc1ccc2c(c1)C(=O)N1CCC[C@H]1c1c(C(=O)N(C)C)ncn1-2 | 1.07 |
| COc1ccc2c(c1)C(=O)N1CCC[C@H]1c1c(C(=O)O)ncn1-2 | 0.12 |
| CC(C)(C)OC(=O)c1ncn2c1[C@@H]1CCCN1C(=O)c1cc(O)ccc1-2 | 0.98 |
| [2H]C([2H])([2H])Oc1ccc2c(c1)C(=O)N1CCC[C@H]1c1c(C(=O)O)ncn1-2 | 0.75 |

Batch of 4 molecules: report log10 half-life at 10 µM for each.
1. [2H]C([2H])([2H])Oc1ccc2c(c1)C(=O)N1CCC[C@H]1c1c(C(=O)NC(C)(C)C)ncn1-2
2. [2H]C([2H])([2H])Oc1ccc2c(c1)C(=O)N1CCC[C@H]1c1c(C(=O)OC)ncn1-2
3. COC(=O)c1ncn2c1[C@@H]1CCCN1C(=O)c1cc(OC)ccc1-2
4. [2H]C([2H])([2H])Oc1ccc2c(c1)C(=O)N1CCC[C@H]1c1c(C(=O)NC)ncn1-2

Output line:
1: 0.85; 2: 1.21; 3: 1.05; 4: 1.38

###

- Test system: Liver
- Test Summary: Half life in mouse liver microsomes at 10 uM by LC-MS/MS analysis
- Assay type: ADME, microsome
- Assay Setup: microsomes, 10 µM
Endpoint Label: t1/2 (h)
Numbers only, in h.

| Compound Structure | Subject Of Test | t1/2, h |
| --- | --- | --- |
| [2H]C([2H])([2H])Oc1ccc2c(c1)C(=O)N1CCC[C@H]1c1c(C(=O)NC3CC3)ncn1-2 | Liver | 0.295 |

Batch of 5 compounds: report t1/2 for each.
1. [2H]C([2H])([2H])Oc1ccc2c(c1)C(=O)N1CCC[C@H]1c1c(C(=O)NC(C)(C)C)ncn1-2
2. CCNC(=O)c1ncn2c1[C@@H]1CCCN1C(=O)c1cc(OC)ccc1-2
3. COc1ccc2c(c1)C(=O)N1CCC[C@H]1c1c(C(=O)NC3CC3)ncn1-2
4. COc1ccc2c(c1)C(=O)N1CCC[C@H]1c1c(C(=O)N(C)C)ncn1-2
5. COc1ccc2c(c1)C(=O)N1CCC[C@H]1c1c(C(=O)NC(C)(C)C)ncn1-2

Output line:
21.5
4.72
0.222
1.06
10.4

###

Consider the following molecules; for each one, report its half-life at 10 µM.
- Test Summary: Half life in human liver microsomes at 10 uM by LC-MS/MS analysis
- Assay type: ADME, microsome
Numbers only, in h.

| Compound Structure | Measurement Unit | half-life at 10 µM |
| --- | --- | --- |
| COc1ccc2c(c1)C(=O)N1CCC[C@H]1c1c(C(=O)OC(C)(C)C)ncn1-2 | h | 11.9 |
| [2H]C([2H])([2H])Oc1ccc2c(c1)C(=O)N1CCC[C@H]1c1c(C(=O)OC(C)(C)C)ncn1-2 | h | 16.9 |
| CCNC(=O)c1ncn2c1[C@@H]1CCCN1C(=O)c1cc(OC)ccc1-2 | h | 12.2 |
| COc1ccc2c(c1)C(=O)N1CCC[C@H]1c1c(C(=O)NC3CC3)ncn1-2 | h | 13.1 |

We now examine a further molecule.
Input line: I'd like to know its half-life at 10 µM. The molecule in question is [2H]C([2H])([2H])Oc1ccc2c(c1)C(=O)N1CCC[C@H]1c1c(C(=O)OCC(C)C)ncn1-2
Output line: 3.35
